System: U-251
Experiment: In vitro cytotoxicity was determined against U251 human CNS tumor cell line using NCI screen
Format: functional, cell-based
RESULT_TYPE: pIC50
By convention, pIC50 is the negative base-10 log of a molar concentration.

Task item: Given O=[Se](=O)(CCCl)c1ccccc1 , state its recorded pIC50.
Reply: 5.22

###

Experiment: Pseudo first order rate constant of NBP alkylation was determined at 37 degree Centigrade
Assay type: ADME
RESULT_TYPE: k' (min⁻¹)
Express the result in min⁻¹ but write the number alone.

Previously resolved entries follow.
INSERT INTO results (molecule, assay_value) VALUES
  ('CS(=O)(=O)CS(=O)(=O)OCCCl', 0.00123),
  ('COc1ccc([Se](=O)(=O)CCCl)cc1', 0.00125),
  ('O=[N+]([O-])c1ccc([Se](=O)(=O)CCCl)cc1', 0.0104),
  ('CC[Se](=O)(=O)c1ccccc1', 0.00248),
  ('O=C(O)CCCc1ccc(N(CCCl)CCCl)cc1 [CHLORAMBUCIL]', 0.00149),
  ('O=[Se](=O)(CCCl)c1ccccc1', 0.00138);

// switching to the query molecule
Task item: Need k', item CS(=O)(=O)OCCC[Se](=O)(=O)c1ccccc1
Reply: 0.00121

###

Test system: TE-671
Assay: In vitro cytotoxicity was determined against TE671 human CNS tumor cell line using NCI screen
Format: functional, cell-based
RESULT_TYPE: IC50 (µM)
Respond numerically; units are µM and should not be typed.

Task item: Short answer please: IC50, TE-671, entry O=[Se](=O)(CCCl)c1ccccc1
Reply: 6

###

Test: Half-life after NBP alkylation
Assay type: ADME
RESULT_TYPE: half-life (h)
Quick reminder: number only, in h, skip the unit.

INSERT INTO assay_data (compound_structure_string, assay_value) VALUES
  ('COc1ccc([Se](=O)(=O)CCCl)cc1', 9.25),
  ('O=[Se](=O)(CCCl)c1ccccc1', 8.37),
  ('CC[Se](=O)(=O)c1ccccc1', 4.67),
  ('O=[N+]([O-])c1ccc([Se](=O)(=O)CCCl)cc1', 1.08),
  ('O=C(O)CCCc1ccc(N(CCCl)CCCl)cc1', 7.75),
  ('ClCC[Se]CCCl', 0.004);

Lab note: next molecule to report on.
Task item: For ClCC[Se]c1ccccc1 , what is its reported half-life?
Reply: 0.031

###

System: CCRF-CEM
Experiment: In vitro growth inhibition against CCRF-CEM human lymphoblast cells
Format: functional, cell-based
Listed next: entries and their corresponding IC50.

Answered examples (2):
INSERT INTO measurements (compound_structure_string, result_type, assay_value) VALUES
  ('CS(=O)(=O)OCCC[Se](=O)(=O)c1ccccc1', 'IC50', '900 nM'),
  ('O=[N+]([O-])c1ccc([Se](=O)(=O)CCCl)cc1', 'IC50', '400 nM');

Task item: Please give the measured IC50 for this compound: COc1ccc([Se](=O)(=O)CCCl)cc1
Reply: 140 nM

Task item: Also O=[Se](=O)(CCCl)c1ccccc1 , if possible.
Reply: 150 nM

Task item: Queued: O=S(=O)(CCCl)c1ccccc1
Reply: 2250 nM

Task item: Check CC[Se](=O)(=O)c1ccccc1 too.
Reply: 10000 nM

###

Test system: UACC-257
Test: In vitro cytotoxicity was determined against UACC-257 human melanoma cell line using NCI screen
Format: functional, cell-based
RESULT_TYPE: IC50 (µM)
Enter your answer as a number in µM; do not include the unit.

Task item: I am curious: what IC50 value has been reported for O=[Se](=O)(CCCl)c1ccccc1 ?
Reply: 3.7

###

Test: Half-life after NBP alkylation
Format: ADME
RESULT_TYPE: half-life (h)
Write the answer as a number in h, unit excluded.

INSERT INTO assay_data (compound_structure_string, result_type, assay_value) VALUES
  ('CS(=O)(=O)CS(=O)(=O)OCCCl', 'half-life', 9.4);

Task item: Field request: half-life | item: CS(=O)(=O)OCCC[Se](=O)(=O)c1ccccc1
Reply: 9.55
